These entries and their values trace back to ChEMBL document CHEMBL4002602.

Target: Adenosine receptor A2b (Homo sapiens)
Sequence (P29275 whole entry): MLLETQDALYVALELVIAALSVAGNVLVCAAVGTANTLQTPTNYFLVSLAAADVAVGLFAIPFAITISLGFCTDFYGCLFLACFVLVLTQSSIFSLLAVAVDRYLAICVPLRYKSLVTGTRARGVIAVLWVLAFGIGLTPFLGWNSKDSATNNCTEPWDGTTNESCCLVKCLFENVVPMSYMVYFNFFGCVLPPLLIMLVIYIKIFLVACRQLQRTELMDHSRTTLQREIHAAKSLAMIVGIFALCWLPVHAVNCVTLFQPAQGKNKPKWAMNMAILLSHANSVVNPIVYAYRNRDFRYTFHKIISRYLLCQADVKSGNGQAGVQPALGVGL
Experiment: Antagonist activity at human adenosine A2B receptor expressed in HEK293 cell membranes assessed as decrease in NECA/forskolin-induced cAMP level pretreated for 15 mins followed by agonist addition for 15 mins and subsequent forskolin stimulation measured after 30 mins
Type: functional, cell-based
Listed here: items and their measured Ki.

{"columns": ["molecule", "study.system", "Ki, nM"],
 "data": [
  ["COc1ccc(N2CCOCC2)c2sc(NC(=O)C3(C)CCC(O)CC3)nc12 (centres undefined)", "Adenosine receptor A2b (Homo sapiens)", 1000],
  ["COc1cnc(N2CCOCC2)c2sc(NC(=O)C(C)(C)Oc3ccc(F)cc3)nc12", "Adenosine receptor A2b (Homo sapiens)", 2000],
  ["COc1ccc(N2CCOCC2)c2sc(NC(=O)C3(C)CCC(C)(O)CC3)nc12 (centres undefined)", "Adenosine receptor A2b (Homo sapiens)", 2000],
  ["CCN(CC)C1CCC(C)(C(=O)Nc2nc3c(OC)ccc(N4CCOCC4)c3s2)CC1 (centres undefined)", "Adenosine receptor A2b (Homo sapiens)", 650]
]}
